Assay: in vitro
Parameters: species or system HB2, HEK293
Details: human, ccd841 cells
QUANTITY: viability at 48 h, 10 µM (%)
Form entry: value (%) — number only.

Use the examples below as a reference point.
- COMPOUND: "O=C(CCl)Nc1nc(-c2ccco2)cs1"
  UNIT ABBREVIATION: "%"
  viability at 48 h, 10 µM: 89.7
- COMPOUND: "O=C(CCl)N1CCSc2ccccc21"
  UNIT ABBREVIATION: "%"
  viability at 48 h, 10 µM: 60.6

Lab note: next compound to report on.
**Q:** Determine its reported viability at 48 h, 10 µM: O=C(CCl)NC1(c2ccc3c(c2)OCCO3)CCCC1
**A:** 69.3

====

Assay: in vitro
Parameters: species or system HB2, CCD841
Details: human, hek293 cells
QUANTITY: viability at 48 h, 10 µM (%)
Use % as the unit, but write only the number.

See these solved cases before continuing.
- MOLECULE: "C=CC(=O)NCc1cc2sccc2s1"
  viability at 48 h, 10 µM / %: 78.6
- MOLECULE: "C=CC(=O)NC1CCC(N2CCCS2(=O)=O)CC1 (stereo not drawn)"
  viability at 48 h, 10 µM / %: 78

Moving on to another molecule below.
**Q:** Given the molecule O=C(CCl)Nc1ccccc1C(=O)O , write its reported viability at 48 h, 10 µM.
**A:** 78.8

====

Documented viability at 48 h, 10 µM across a set of compounds
Experiment: in vitro
Set-up: species or system CCD841, HEK293
Conditions: human, hb2 cells, read-out: HB-2 Cells Viability (%)
// note: answer is a bare numeric in %

# example entries with known answers
- COMPOUND: "C=CC(=O)N1CCc2ccccc21 [PCM-0102732]"
  viability at 48 h, 10 µM [%]: 93.4
- COMPOUND: "C=CC(=O)N1Cc2ccccc2OC(C)(C)C1 [PCM-0102927]"
  viability at 48 h, 10 µM [%]: 104
- COMPOUND: "CC(=O)c1cccc(N2Cc3ccccc3C2=NC(=O)CCl)c1 [PCM-0102283]"
  viability at 48 h, 10 µM [%]: 99.6
- COMPOUND: "N#Cc1ccc(NC(=O)CCl)cc1 [PCM-0102875]"
  viability at 48 h, 10 µM [%]: 36.6
- COMPOUND: "CCC1CN(C(=O)CCl)CCO1 (stereo not drawn) [PCM-0102436]"
  viability at 48 h, 10 µM [%]: 85.5
- COMPOUND: "CC(C)(C)C(=O)NNC(=O)CCl [PCM-0102855]"
  viability at 48 h, 10 µM [%]: 98.2

**Q:** Query viability at 48 h, 10 µM for COc1ccc(C)cc1NC(=O)CCl [PCM-0103043]
**A:** 81.3

**Q:** For the compound Cc1ccc(CN(C)C(=O)CCl)o1 [PCM-0102399] , give its reported viability at 48 h, 10 µM.
**A:** 25.7

**Q:** Note viability at 48 h, 10 µM for the compound shown: CC1CCCC(NC(=O)NC(=O)CCl)C1C (stereo not drawn) [PCM-0102332]
**A:** 48.7

**Q:** Identify viability at 48 h, 10 µM associated with the compound Cc1ccc(-n2nc(C)c(NC(=O)CCl)c2C)cc1 [PCM-0102131]
**A:** 63.8

**Q:** Supply recorded viability at 48 h, 10 µM for CCNC(=O)NC(=O)CCl [PCM-0102654] here.
**A:** 90.8

**Q:** Retrieve viability at 48 h, 10 µM measured for Cc1cccc(N2CCN(C(=O)CCl)CC2)c1C [PCM-0102215] and print it.
**A:** 7.5

**Q:** // fetch viability at 48 h, 10 µM given entry O=C(CCl)N1CCC2(CC1)OCCO2 [PCM-0102823]
**A:** 98.2

**Q:** Please list viability at 48 h, 10 µM recorded for the compound CC(NC(=O)CCl)c1ccc2c(c1)OCCO2 (stereo not drawn) [PCM-0102342]
**A:** 93.8

**Q:** Query viability at 48 h, 10 µM for Cc1ccc(-c2csc(NC(=O)CCl)n2)cc1 [PCM-0102168]
**A:** 5.5

**Q:** Input C=CC(=O)N1CCC(C(=O)N(C)c2ccccc2)C1 (stereo not drawn) [PCM-0102771] , output reported viability at 48 h, 10 µM.
**A:** 100

**Q:** Report measured viability at 48 h, 10 µM; entry is O=C(CCl)NNC(=O)c1ccc(Cl)cc1 [PCM-0102953]
**A:** 83

**Q:** In one line, give reported viability at 48 h, 10 µM of the entry C=CC(=O)N1CCOC2(CCc3ccccc32)C1 (stereo not drawn) [PCM-0102439] .
**A:** 99.3

**Q:** Tell me viability at 48 h, 10 µM reported for CC(=O)c1ccccc1NC(=O)CCl [PCM-0102282]
**A:** 102

**Q:** Please report the measured viability at 48 h, 10 µM for CC(C)(C)c1nnc(NC(=O)CCl)s1 [PCM-0102736]
**A:** 80.1

**Q:** Note viability at 48 h, 10 µM for the compound shown: Cc1cccc(N(C(=O)CCl)C2C=CS(=O)(=O)C2)c1 (stereo not drawn) [PCM-0102579]
**A:** 29.8

**Q:** // Input: O=C(CCl)Nc1ccc([N+](=O)[O-])cc1C(F)(F)F [PCM-0102406] . Output its viability at 48 h, 10 µM only.
**A:** 81.5

**Q:** Please give measured viability at 48 h, 10 µM of the following entry: O=C(CCl)Nc1cccnc1N1CCCC1 [PCM-0102852]
**A:** 106

====

Experiment: in vitro
Design: species or system HB2, CCD841
Details: human, hek293 cells
Classify: rule met when viability at 48 h, 10 µM is strictly less than 30%; rule not met when viability at 48 h, 10 µM is not.

Some entries whose results are on file:
- COMPOUND: "O=C(CCl)N1N=C(c2ccco2)CC1c1cccs1 (centres unmarked)"
  QUALITATIVE LABEL: "rule met"
- COMPOUND: "O=C(CCl)N1CCCc2cccc(F)c21"
  QUALITATIVE LABEL: "rule met"
- COMPOUND: "CN(C(=O)CCl)C1CCS(=O)(=O)C1 (centres unmarked)"
  QUALITATIVE LABEL: "rule not met"
- COMPOUND: "CNC(=O)C1CCCN1C(=O)CCl (centres unmarked)"
  QUALITATIVE LABEL: "rule not met"

Field: next compound
**Q:** Hi there! Is viability at 48 h, 10 µM for Cc1nn(-c2ccccc2)c(C)c1NC(=O)CCl below 30%, do you know?
**A:** rule not met

====

Biological target: OTUB2 (OTUB2A) (Homo sapiens, UniProt Q96DC9)
Construct: full length residues 1-234, E. coli BL21(DE3)-R3, His tag removed by TEV, construct 27312 Da
Sequence (Q96DC9 1-234): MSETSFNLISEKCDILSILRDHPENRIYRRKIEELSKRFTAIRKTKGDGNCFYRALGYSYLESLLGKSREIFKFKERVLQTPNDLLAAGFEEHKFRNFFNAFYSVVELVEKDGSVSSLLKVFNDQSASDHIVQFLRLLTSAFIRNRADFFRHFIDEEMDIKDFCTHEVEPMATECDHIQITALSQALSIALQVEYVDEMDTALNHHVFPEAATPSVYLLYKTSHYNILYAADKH
Parameters: Intact protein LC/MS covalent labelling, fragments in pools of five, 200 uM each, 4 °C
Settings: 24 h, 4 °C, pool of five; 200 µM; covalent
QUANTITY: OTUB2
// keep it numeric: no unit symbol after the value

Some compounds with known OTUB2 results, for comparison:
- COMPOUND: "O=C(CCl)Nc1nnc(C2CC2)o1"
  OTUB2: 0
- COMPOUND: "Cc1ccc(-c2nnc(C)[nH]2)c(NC(=O)CCl)c1"
  OTUB2: 0
- COMPOUND: "CC(C)(C)C1CCc2sc(C(=O)NNC(=O)CCl)cc2C1 (centres unmarked)"
  OTUB2: 0.67
- COMPOUND: "C=CC(=O)NC(O)C(Cl)(Cl)Cl (centres unmarked)"
  OTUB2: 0
- COMPOUND: "CS(=O)(=O)c1ccc(F)c(NC(=O)CCl)c1"
  OTUB2: 0.16
- COMPOUND: "O=C(CCl)NC(=O)c1cccs1"
  OTUB2: 0
- COMPOUND: "C=CC(=O)NC1CCN(c2ccc(C(F)(F)F)cn2)CC1"
  OTUB2: 0
- COMPOUND: "C=CC(=O)N1CCC(C(=O)N2CCN(C(C)=O)CC2)CC1"
  OTUB2: 0

**Q:** Enter recorded OTUB2 with OTUB2 (OTUB2A) (Homo sapiens, UniProt Q96DC9) for CCOC(=O)C1CCCN(C(=O)CCl)C1 (centres unmarked) here.
**A:** 0.09

**Q:** Provide measured OTUB2 on OTUB2 (OTUB2A) (Homo sapiens, UniProt Q96DC9) for Cl.O=C(CCl)N1CCN(c2cnccn2)CC1 please.
**A:** 0

**Q:** Write down measured OTUB2 (OTUB2 (OTUB2A) (Homo sapiens, UniProt Q96DC9)) for this compound. Cl.O=C(CCl)N1CCN(Cc2cccc(Cl)c2)CC1
**A:** 0.19

These measurements were taken from paper PMC6556873.
